# assay: in vitro
# test context: human, microsomes, pH 7.4
parameter measured: remaining at 1 h (%)
Numbers only; they are read as %.

{"columns": ["test smiles", "remaining at 1 h (%)"],
 "data": [
  ["COc1cccc2[nH]c(C(=O)N[C@@H](Cc3cccc(F)c3)C(=O)N[C@@H](C[C@@H]3CCNC3=O)C(=O)COc3c(F)c(F)c(CO)c(F)c3F)cc12", 0]
]}

Please turn your attention to the following entry.
Determine from records and report remaining at 1 h for "CC(C)(O)c1c(F)c(F)c(OCC(=O)[C@H](C[C@@H]2CCNC2=O)NC(=O)[C@@H]2[C@@H]3[C@H](CN2C(=O)[C@@H](NC(=O)C(F)(F)F)C(C)(C)C)C3(C)C)c(F)c1F"
30.2

---

# assay: in vitro
# test context: African green monkey
parameter measured: CC50

Consider the following illustrative entries.
{"columns": ["test smiles", "observed result"],
 "data": [
  ["CC(C)(C)[C@H](NC(=O)C(F)(F)F)C(=O)N1C[C@H]2[C@@H]([C@H]1C(=O)N[C@@H](C[C@@H]1CCNC1=O)C(=O)COc1c(F)c(F)c(CO)c(F)c1F)C2(C)C", "> 0.501 µM"],
  ["COc1cccc2[nH]c(C(=O)N[C@@H](Cc3cccc(F)c3)C(=O)N[C@@H](C[C@@H]3CC(=O)NC3=O)C(=O)COc3c(F)c(F)c(CO)c(F)c3F)cc12", "> 25.1 µM"],
  ["CCCCCCCCCCCCCCCC(=O)N[C@@H](Cc1cccc(F)c1)C(=O)N[C@@H](C[C@@H]1CCNC1=O)C(=O)COc1c(F)c(F)c(CO)c(F)c1F", "> 25.1 µM"]
]}

Determine from records and report CC50 for "COc1cccc2[nH]c(C(=O)N[C@@H](Cc3cccc(F)c3)C(=O)N[C@@H](C[C@@H]3CCNC3=O)C(=O)COc3c(F)c(F)c(C(C)(C)O)c(F)c3F)cc12"
> 1.26 µM

---

# target entity: human cathepsin B (hCTSB) (Homo sapiens, UniProt P07858)
# assay: hCTSB biochemical assay
parameter measured: hCTSB biochemical assay pIC50
Kindly provide the number alone.

{"columns": ["compound", "observed result"],
 "data": [
  ["COc1cccc2[nH]c(C(=O)N[C@@H](Cc3cccc(F)c3)C(=O)N[C@@H](C[C@@H]3CC(=O)NC3=O)C(=O)COc3c(F)c(F)c(C(C)O)c(F)c3F)cc12 (stereo partly drawn) [compound 9]", 6.09]
]}

Determine from records and report hCTSB biochemical assay pIC50 for COc1cccc2[nH]c(C(=O)N[C@@H](Cc3cccc(F)c3)C(=O)N[C@@H](C[C@@H]3CC(=O)NC3=O)C(=O)COc3c(F)c(F)c(C(C)(C)O)c(F)c3F)cc12 [compound 11]
5.88

Determine from records and report hCTSB biochemical assay pIC50 for COc1cccc2[nH]c(C(=O)N[C@@H](Cc3cccc(F)c3)C(=O)N[C@@H](C[C@@H]3CCNC3=O)C(=O)COc3c(F)c(F)c(F)c(F)c3F)cc12 [compound 16, reference compound]
5.82

---

# assay: physchem
# test context: pH 7.4
parameter measured: logD at 1 h
Kindly provide the number alone.

{"columns": ["molecule", "logD at 1 h"],
 "data": [
  ["CC(C)(C)[C@H](NC(=O)C(F)(F)F)C(=O)N1C[C@H]2[C@@H]([C@H]1C(=O)N[C@@H](C[C@@H]1CCNC1=O)C(=O)COc1c(F)c(F)c(CO)c(F)c1F)C2(C)C [compound 7]", 2.82],
  ["CCCCCCCC(=O)N[C@@H](Cc1cccc(F)c1)C(=O)N[C@@H](C[C@@H]1CCNC1=O)C(=O)COc1c(F)c(F)c(CO)c(F)c1F [compound 3]", 2.23]
]}

Determine from records and report logD at 1 h for COc1cccc2[nH]c(C(=O)N[C@@H](Cc3cccc(F)c3)C(=O)N[C@@H](C[C@@H]3CCNC3=O)C(=O)COc3c(F)c(F)cc(F)c3F)cc12 [compound 15, reference compound]
2.99

The measured values listed here are drawn from paper PMC12169608.
